# Test system: MDA-MB-468 breast
# assay-details: NCI-60 one-dose screen, 48 h (100 = growth as untreated, 0 = no growth, -100 = all killed)
# condition-set: 10 µM unless noted
This is part of a sample that, as a whole, favours compounds with a hit. Of some 83,000 tested, about 20% had one in any assay.
growth for assorted compounds
Lab book: enter the figure in %, no units written.

Look over these answered cases.
compound | study-system | growth (%)
N#Cc1c(-c2cccc(Cl)c2Cl)cc(-c2c[nH]c3ccccc23)[nH]c1=O | MDA-MB-468 breast | 46.5
COc1ccc(C(=O)/C=C/c2cc3c(cc2Br)OCO3)cc1S(N)(=O)=O | MDA-MB-468 breast | 23.8
O=C1Nc2ccc([N+](=O)[O-])cc2C1=Nc1ccccc1 | MDA-MB-468 breast | 109
COc1ccc2c(c1)C(=N/N=C(\C)c1ccc(OC)c(S(N)(=O)=O)c1)C(=O)N2 | MDA-MB-468 breast | 78.6
Cc1cc2nc3c4ccccc4n(CCNCCN(C)C)c3nc2cc1C | MDA-MB-468 breast | -54.4

What does the data say about its growth? Entry: Cc1nc(Nc2ncc(C(=O)Nc3c(C)cccc3Cl)s2)cc(N2CCN(CCCNC(=O)COc3ccc(C4CCC(=O)NC4=O)cc3)CC2)n1 (stereo unspecified)
-23.4

Another compound: COc1cc2c(c(OC)c1OC)C(=O)CC(c1cccc(NC(=O)c3cc(NC(=O)[C@H](CO)NC(=O)OC(C)(C)C)ccc3Cl)c1)O2 (stereo partly specified)
19.8

// repeat for CN(C)c1nc(NCCNS(=O)(=O)c2ccc(C(=O)/C=C/c3ccc(Cl)cc3)cc2)nc(Nc2ccc(F)cc2)n1 and report
-25.9

Next entry: COc1ccc2[nH]cc(-c3nnc(N)nc3-c3cn(C)c4ncc(Br)cc34)c2c1
42.9

Do the same for O=C(N/N=C/c1ccc(-c2ccc(O)cc2)o1)c1[nH]c2ccc(Br)cc2c1-c1ccccc1 please
-16.6

Let us now turn to COc1ccc(C(=O)/C=C/c2ccc(OC)c(OCc3ccccc3)c2)cc1OC
1.46

Param item: Nc1n[nH]c2cccc(C#Cc3cccc(NC(=O)c4cccc(Cl)c4)c3)c12
46

Repeat with COc1c(F)ccc(C(=O)Nc2ccc3nc(NC(=O)C4CCCN(S(=O)(=O)c5cccc(C(F)(F)F)c5)C4)sc3c2)c1F (stereo unspecified)
101

Field entry: C=C1CCC2C3(C)COC(c4cccc(F)c4)OC3CCC2(C)C1C/C=C1/C(=O)OCC1O (stereo unspecified)
-35.2

Cool, now CC12CC[C@@H]3[C@]4(C)COC(c5cn[nH]c5-c5cccc(Br)c5)O[C@@H]4CC[C@@]3(C)[C@@H]1CC(C1=CCOC1=O)O2 (stereo partly specified)
17.4

Now try COc1ccc(NC(=O)Nc2ccc(OCc3ccc(F)cc3)cc2)cc1 .
77.5
